Tested on: HCC38 (Breast Carcinoma);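 also: after 72 h of two-drug dosing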
Experiment: Bliss excess, mean over the matrix (fraction); higher = more synergy
propertyName: Bliss excess
I'd appreciate a reply containing only the number, no unit.

[in] Annotate the molecule NC1(C(=O)N[C@@H](CCO)c2ccc(Cl)cc2)CCN(c2ncnc3[nH]ccc23)CC1 [Capivasertib] + CC(=O)c1c(C)c2cnc(Nc3ccc(N4CCNCC4)cn3)nc2n(C2CCCC2)c1=O [Palbociclib] (first compound max 10 µM, 7x7, partner max 10 µM) with its measured Bliss excess.
[out] -0.023

[in] Kindly indicate its recorded Bliss excess. Item: Cc1cc2ncnn2cc1Nc1ncc2c(n1)n(C1CCOCC1)c(=O)n2C [AZD7648] + C=CCn1c(=O)c2cnc(Nc3ccc(N4CCN(C)CC4)cc3)nc2n1-c1cccc(C(C)(C)O)n1 [AZD1775] (first compound max 10 µM, partner max 1 µM)
[out] -0.0124

[in] Give Bliss excess for the following molecule: Cc1cc2ncnn2cc1Nc1ncc2c(n1)n(C1CCOCC1)c(=O)n2C [AZD7648] + CN(C)CCCOc1ccc(-c2ccc3ncc4c(c3c2)n(C2CCOCC2)c(=O)n4C)cn1 [AZD0156] (first compound max 10 µM, 7x7, partner max 1 µM)
[out] 0.0157

[in] Name the recorded Bliss excess of the molecule listed here: Cn1cnc2c(F)c(Nc3ccc(Br)cc3Cl)c(C(=O)NOCCO)cc21 [Selumetinib] + CCN(CCO)CCCOc1ccc2c(Nc3cc(CC(=O)Nc4cccc(F)c4)[nH]n3)ncnc2c1 [AZD2811] (first compound max 10 µM, 7x7, partner max 1 µM)
[out] -0.0748
